The reported numbers originate from the supplement of paper PMC10126150.

Reported switch fluorescence ratio values follow for various sequences
system: ATP; test: switch fluorescence ratio, 500 uM ATP over buffer (Cy3 cluster intensity, sum of 5 cycles each) (fold (ratio)); higher = stronger signal-on switching upon ATP binding; sequences stand for … in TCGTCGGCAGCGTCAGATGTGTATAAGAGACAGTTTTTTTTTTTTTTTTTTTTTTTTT…TC; conditions: aptamer strand: ATP DNA aptamer (quencher-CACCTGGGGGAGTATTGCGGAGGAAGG + anchor), 100 nM annealed; ATP concentration: 500 uM;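 also: ATP exposure 15 min at 22 °C before imaging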
In your answer, state the number alone without any accompanying words.

# example entries with known answers
[[record]]
residue_codes = "GAACTGATGT"
meas_value = 1

[[record]]
residue_codes = "TTCGGGGGGT"
meas_value = 1.02

[[record]]
residue_codes = "GGAGGTGGTT"
meas_value = 0.981

[[record]]
residue_codes = "TCTTATTTTT"
meas_value = 1.01

[[record]]
residue_codes = "GGACTGAAGT"
meas_value = 1.02

[[record]]
residue_codes = "TGGTGGGATT"
meas_value = 0.995

[[record]]
residue_codes = "GAAAAAGATT"
meas_value = 0.999

[[record]]
residue_codes = "TATTGCATTA"
meas_value = 1.03

[[record]]
residue_codes = "CGGGGCTTAT"
meas_value = 0.991

[[record]]
residue_codes = "CATTTTAGTG"
meas_value = 1


Now consider the entry below.
## Input Looking for the measured switch fluorescence ratio of `TTTCTGATTT` , can you help?
## Output 0.983

###

tested on: ATP; assay: switch fluorescence ratio, 500 uM ATP over buffer (Cy3 cluster intensity, sum of 5 cycles each) (fold (ratio)); higher = stronger signal-on switching upon ATP binding; sequences stand for … in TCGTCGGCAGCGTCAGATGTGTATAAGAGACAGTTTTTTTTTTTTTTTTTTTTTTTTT…TC; conditions: aptamer strand: ATP DNA aptamer (quencher-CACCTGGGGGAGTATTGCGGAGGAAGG + anchor), 100 nM annealed; ATP concentration: 500 uM;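 also: ATP exposure 15 min at 22 °C before imaging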
Quantity name: switch fluorescence ratio
Reply: number alone, nothing else.

Worked cases, answers included:
[[record]]
residue_codes = "AGATGTGGTT"
meas_value = 0.992

[[record]]
residue_codes = "CTGTAAATTT"
meas_value = 0.991

[[record]]
residue_codes = "TCTAAGGTTA"
meas_value = 1

[[record]]
residue_codes = "TTATTCATTT"
meas_value = 1

[[record]]
residue_codes = "GAAATATCAT"
meas_value = 0.971

[[record]]
residue_codes = "AAGATGTCGT"
meas_value = 1.02

[[record]]
residue_codes = "AATCAATTAA"
meas_value = 1

[[record]]
residue_codes = "GACGGGGAAG"
meas_value = 1.08


## Input What does the data say about its switch fluorescence ratio? Entry: `AGGGTTAGCT`
## Output 0.991

## Input Form field: reported switch fluorescence ratio of `CTAGTGGTGA`
## Output 0.972

## Input Query: switch fluorescence ratio; subject: `AATCGTAGTG`
## Output 0.989

## Input If you can, please state the reported switch fluorescence ratio value of `GCGGGGGAAC` .
## Output 1.02

###

tested on: ATP; assay: switch fluorescence ratio, 500 uM ATP over buffer (Cy3 cluster intensity, sum of 5 cycles each) (fold (ratio)); higher = stronger signal-on switching upon ATP binding; sequences stand for … in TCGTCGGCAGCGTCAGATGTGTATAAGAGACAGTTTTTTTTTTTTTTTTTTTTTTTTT…TC; details: aptamer strand: ATP DNA aptamer (quencher-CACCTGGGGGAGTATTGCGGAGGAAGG + anchor), 100 nM annealed; ATP concentration: 500 uM;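 also: ATP exposure 15 min at 22 °C before imaging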
switch fluorescence ratio by entry:
Form: value (number only, do not type unit).

[[record]]
residue_codes = "TTGGATAGGG"
quantity_name = "switch fluorescence ratio"
meas_value = 1.04

[[record]]
residue_codes = "GTATTTACTC"
quantity_name = "switch fluorescence ratio"
meas_value = 1.04

[[record]]
residue_codes = "GGCCTGGGCT"
quantity_name = "switch fluorescence ratio"
meas_value = 1.02

[[record]]
residue_codes = "GCTACAGCAT"
quantity_name = "switch fluorescence ratio"
meas_value = 1.06

[[record]]
residue_codes = "GGAGACTGGT"
quantity_name = "switch fluorescence ratio"
meas_value = 1.02

[[record]]
residue_codes = "TTTCGGTTCT"
quantity_name = "switch fluorescence ratio"
meas_value = 0.991

[[record]]
residue_codes = "GCTCAAAGCT"
quantity_name = "switch fluorescence ratio"
meas_value = 1.01

[[record]]
residue_codes = "CTTTGGGGAT"
quantity_name = "switch fluorescence ratio"
meas_value = 1.05

[[record]]
residue_codes = "AGCCCGCGCA"
quantity_name = "switch fluorescence ratio"
meas_value = 1.03


Here's the next entry for you.
## Input Field request: switch fluorescence ratio | item: `GGCGTTGCGG`
## Output 0.985
